TEST_SYSTEM: Cytochrome P450 2D6 (Homo sapiens) (UniProt P10635)
Sequence (P10635 whole entry, looked up): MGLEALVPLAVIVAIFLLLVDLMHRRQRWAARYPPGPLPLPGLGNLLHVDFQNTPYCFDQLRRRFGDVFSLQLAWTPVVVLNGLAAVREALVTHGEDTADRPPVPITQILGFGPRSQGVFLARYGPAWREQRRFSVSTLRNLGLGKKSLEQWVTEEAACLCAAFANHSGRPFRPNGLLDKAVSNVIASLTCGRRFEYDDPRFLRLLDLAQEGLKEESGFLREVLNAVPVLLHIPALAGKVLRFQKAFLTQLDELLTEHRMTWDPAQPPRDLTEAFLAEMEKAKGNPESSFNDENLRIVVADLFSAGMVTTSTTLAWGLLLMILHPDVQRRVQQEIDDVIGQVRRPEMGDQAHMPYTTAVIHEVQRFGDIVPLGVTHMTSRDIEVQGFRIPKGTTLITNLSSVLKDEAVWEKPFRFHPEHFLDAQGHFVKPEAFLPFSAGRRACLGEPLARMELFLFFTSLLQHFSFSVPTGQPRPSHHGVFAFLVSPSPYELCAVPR
PROCEDURE_SUMMARY: Cytochrome panel assay with activity outcomes; for activity, negative = inhibition: % is set by controls: 0 for no effect and ±100 for the full control effect
RUN_PARAMETERS: recombinant CYP, pro-luciferin dealkylation, luminescence, p450-cyp2d6; series mostly up to 57.1 µM
Among all 16,000 compounds or so, about 2,600 (16%) were called active. Roughly 20% stayed inconclusive and do not appear here. Not all results are given here.
Below, each of the compounds is paired with its reported activity, negative = inhibition value.
MEASURED_ENDPOINT: activity, negative = inhibition

| COMPOUND | TEST_SYSTEM | RESULT |
| --- | --- | --- |
| O=C(O)c1c(-c2c3ccc(=O)cc-3oc3cc(O)ccc23)cc2ccccc2c1-c1ccccc1 | Cytochrome P450 2D6 (Homo sapiens) (UniProt P10635) | 6.33% [at 11.4 µM] (inactive) |
| O=C(O)C1CC2(C1)CC(C(=O)O)C2 (stereo unspecified) | Cytochrome P450 2D6 (Homo sapiens) (UniProt P10635) | 10.8% [at 11.4 µM] (inactive) |
| NC(N)=Nc1nc2ccc([N+](=O)[O-])cc2[nH]1 | Cytochrome P450 2D6 (Homo sapiens) (UniProt P10635) | 2.98% [at 11.4 µM] (inactive) |
| O=C1CCCC=C1[C@H](CCc1ccccc1)OC(=O)c1ccc(Br)cc1 | Cytochrome P450 2D6 (Homo sapiens) (UniProt P10635) | -4.24% [at 11.4 µM] (inactive) |
| C=CC[C@@H](C(=O)O)c1ccccc1 | Cytochrome P450 2D6 (Homo sapiens) (UniProt P10635) | 1.94% [at 11.4 µM] (inactive) |
| CC(C)(C)c1ccc(OCC(=O)O)c(Cl)c1 | Cytochrome P450 2D6 (Homo sapiens) (UniProt P10635) | 12.8% [at 11.4 µM] (inactive) |

----------
TEST_SYSTEM: Cytochrome P450 2D6 (Homo sapiens)
PROCEDURE_SUMMARY: Cytochrome panel assay with activity outcomes
RUN_PARAMETERS: recombinant CYP, pro-luciferin dealkylation, luminescence, p450-cyp2d6; series mostly up to 57.1 µM
Method: The P450 gene superfamily is involved in the metabolism and clearance of xenobiotics. This assay used various human CYP P450 isozymes to measure the dealkylation of various pro-luciferin substrates to luciferin. The luciferin is then measured by luminescence after the addition of a luciferase detection reagent. […] Inhibitors and some substrates limit the production of luciferin, and decrease measured luminescence. […] 8, Detection, 1 sec, ViewLux luminescent read […]
Screen size: about 16,000 compounds; about 2,600 (16%) were called active. About 20% were inconclusive and are not listed. Not all results are given here. Peptide text beside a SMILES is read from it. * marks the point of attachment. Cbz = O=C(OCc1ccccc1)*

| COMPOUND | AC50 |
| --- | --- |
| Cc1cc(C)c(S(C)(=O)=O)c(Oc2ccc(F)cc2)n1 | inactive |
| COC(=O)[C@@H]1C[C@H]1[C@@H](NC(=O)c1cc(C)on1)c1ccccc1 | inactive |
| O=C(O)c1cc2cc(Cc3cccnc3)ccc2o1 | inactive |
| CCc1ccccc1NC(=O)c1nnn(CC(=O)Nc2cccc(C)c2C)c1N | inactive |
| CC(=O)c1cnc2c(C(=O)O)cnn2c1C | inactive |
| CCCc1nnc(SCC(=O)N2CCCCC2)n1CC1CCCO1 (stereo unspecified) | inactive |
| CC(C)=CCC1=C(OCC(=O)O)C(=O)c2ccccc2C1=O | 3.16 µM (active) |
| COC(=O)c1[nH]c2ccc(Br)cc2c1NC(=O)CN1CCN(C2CCCCC2)CC1 | 1 µM (active) |
| O=C(NC1CCCCC1)c1sc(=S)n2c1[nH]c(=O)c1ccccc12 | inactive |
| O=C(CCCc1ccccc1)N1CCN(c2ccc([N+](=O)[O-])cc2)CC1 | inactive |
| Cc1c(C(=O)Nc2ccc(OCc3ccccc3)cc2)cccc1[N+](=O)[O-] | inactive |
| CC(C)[C@H](NC(=O)OCc1ccccc1)C(=O)N[C@H](C=O)Cc1ccccc1 (Cbz-Val-Phe-aldehyde) | inactive |
| CCC[C@@H]1O[C@@H]2C[C@@H]3[C@H]4CCC5=CC(=O)C=C[C@@]5(C)[C@H]4[C@H](O)C[C@@]3(C)[C@@]2(C(=O)CO)O1 | inactive |
| COC(=O)c1[nH]c2ccc(Br)cc2c1NC(=O)CN1CCCc2ccccc21 | inactive |
| COC(=O)[C@H]1C[C@@H]1[C@H](NC(=O)c1cc(C)on1)c1ccccc1 | inactive |
| COc1cccc(NC(=O)C2c3cc(OC)c(OC)cc3C(=O)N(C)C2c2cccnc2)c1 (stereo unspecified) | inactive |
| Cc1nc2c(O)cccc2c(=O)[nH]1 | 12.6 µM (active) |
| CCOC(=O)C1C(=O)C=C(c2ccc(C)cc2)CC1c1ccco1 (stereo unspecified) | inactive |
| CC(C)C(=O)Nc1ccc(C(=O)NNC(=O)C(c2ccccc2)c2ccccc2)cc1 | inactive |
| Cn1c(=O)c(-c2ccc(F)cc2)nc2cnc(Oc3ccccc3)nc21 | inactive |
| COc1ccc2[nH]cc(CCNc3ccnc(-c4ccc5c(c4)OCO5)n3)c2c1 | 7.94 µM (active) |

----------
TEST_SYSTEM: Cytochrome P450 2D6 (Homo sapiens) (UniProt P10635)
PROCEDURE_SUMMARY: Cytochrome panel assay with activity outcomes
RUN_PARAMETERS: recombinant CYP, pro-luciferin dealkylation, luminescence, p450-cyp2d6; series mostly up to 57.1 µM
The whole screen tested about 16,000 compounds, of which about 2,600 (16%) were called active. About 20% were inconclusive and are not listed. Calls come from the whole dose curve; as a rule, active = well fitted curve in the direction sought with a large enough effect; inconclusive = small, poorly fitted or top-dose-only effect, or effect the other way; inactive = no such curve, though single readings can be large or run the other way. The list is a sample of the results.
Labels: label 1 = active, label 0 = inactive

| COMPOUND | CAT |
| --- | --- |
| CCCCCCC/C=C\CCCCCCCCC(=O)O | label 0 |
| Cc1ccc(CSc2nnc(C(F)(F)F)n2Cc2ccc(F)cc2)cc1 | label 0 |
| CCOC(=O)CCN1C(=O)[C@H]2[C@H]3[C@H](O)[C@H](O)C/C(=N/O[C@@H]4O[C@@H](COC(C)=O)[C@@H](OC(C)=O)[C@@H](OC(C)=O)[C@H]4OC(C)=O)[C@@H]3CC[C@@H]2C1=O | label 1 |
| CCOC(=O)CCN1C(=O)[C@H]2[C@H]3[C@H](O)[C@H](O)C/C(=N/O[C@@H]4O[C@@H](COC(C)=O)[C@@H](OC(C)=O)[C@@H](OC(C)=O)[C@H]4OC(C)=O)[C@H]3CC[C@@H]2C1=O | label 1 |
| Cc1ccccc1NC(=O)c1ccc(N/N=C/c2ccccc2O)c([N+](=O)[O-])c1 | label 0 |
| O=[N+]([O-])c1ccc(/C=N/N/C(=N/c2ccccn2)c2ccccn2)cc1 | label 0 |
| Cc1ccccc1CS(=O)(=O)Cc1ccc(C(=O)NCc2cccnc2)o1 | label 1 |
| O=c1c(-c2ccc(F)cc2)nc2cnc(N3CCNCC3)nc2n1C1CC1 | label 0 |
| COc1ccc(-c2nc3cnc(N4CCN(C)CC4)nc3n(Cc3ccc(F)cc3)c2=O)cc1 | label 0 |
| CCCCCCCCCCCCCCC/C=C\[C@H](O)[C@@H](NC(=O)CCCCCCCCCCCCC)OC (tested in a mixture with another compound) | label 0 |
| Fc1ccc(Cn2c(SCc3ccc(F)c(C(F)(F)F)c3)nnc2C(F)(F)F)cc1 | label 1 |
| Cc1nn(C(C)C(=O)N2CCc3ccccc32)c(C)c1[N+](=O)[O-] (stereo not drawn) | label 0 |
| CCn1cc(C(=O)O)c(=O)c2cc(F)c(N3CCN[C@@H](C)C3)c(F)c21 | label 0 |
| CCN1C(=O)[C@H]2[C@H]3[C@H](O)[C@H](O)C/C(=N/O[C@@H]4O[C@H](COC(C)=O)[C@@H](OC(C)=O)[C@H](OC(C)=O)[C@H]4OC(C)=O)[C@@H]3CC[C@@H]2C1=O | label 1 |
| CC(=O)NC1=NN(c2ccccc2)C(=O)C1 | label 0 |
| Cc1cccc(CS(=O)(=O)Cc2ccc(C(=O)NCc3ccco3)o2)c1 | label 0 |
| CC(=O)N1CCC(=O)N(C(C)C)c2ccccc21 | label 1 |
| Cc1cc(=O)oc(C)c1C(=O)NCc1cccnc1 | label 0 |

----------
TEST_SYSTEM: Cytochrome P450 2D6 (Homo sapiens)
PROCEDURE_SUMMARY: Cytochrome panel assay with activity outcomes
RUN_PARAMETERS: recombinant CYP, pro-luciferin dealkylation, luminescence, p450-cyp2d6; series mostly up to 57.1 µM
Among all 16,000 compounds or so, about 2,600 (16%) were called active. Roughly 20% stayed inconclusive and do not appear here. Calls come from the whole dose curve; as a rule, active = well fitted curve in the direction sought with a large enough effect; inconclusive = small, poorly fitted or top-dose-only effect, or effect the other way; inactive = no such curve, though single readings can be large or run the other way. A selection follows.
Labels: active, inactive

| COMPOUND | CAT |
| --- | --- |
| O=C(c1cnccn1)N1CCC[C@@]2(CCN(Cc3cc(C(F)(F)F)cc(C(F)(F)F)c3)C2)C1 | active |
| CCCCOc1ccccc1C1CC(=O)NC2=C1C(=O)CCC2 (stereo unspecified) | inactive |
| O=C(O)c1cccnc1SCC(=O)N1CCCCCC1 | inactive |
| Cc1ccc(OCCNC(=O)c2cc(-n3cnnc3)ccc2Cl)cc1C | inactive |
| Cc1cc(C)n2c(SCC(=O)N(C)C3CCS(=O)(=O)C3)nnc2n1 (stereo unspecified) | inactive |
| NC(=O)c1cc[n+](CC2=C(C(=O)[O-])N3C(=O)[C@@H](NC(=O)Cc4cccs4)[C@@H]3SC2)cc1 | inactive |
| Cc1ccc(C)c(NC(=O)NCc2ccc(Cl)cc2)c1 | active |
| O=C(c1ccco1)N1CCC2(CC1)CN(Cc1cc(C(F)(F)F)cc(C(F)(F)F)c1)C2 | active |
| CCOC(=O)C1=C(c2ccccc2)N=c2s/c(=C\c3cc(OC)c(OC)c(OC)c3)c(=O)n2C1c1cccs1 (stereo unspecified) | inactive |
| CCOC(=O)C1=C(c2ccccc2)N=c2s/c(=C\c3cccc(O)c3)c(=O)n2C1c1cccs1 (stereo unspecified) | active |
| CS(=O)(=O)N1CCC2(CC1)CN(Cc1cc(C(F)(F)F)cc(C(F)(F)F)c1)C2 | active |
| COC(=O)c1cc(-c2ccccc2)sc1NC(=O)CN1C(=O)c2ccccc2C1=O | inactive |
| COc1ccc(C(=O)n2nc(-c3ccccc3)nc2SC)cc1 | inactive |
| CCOC(=O)C1=C(c2ccccc2)N=c2s/c(=C\c3ccc(O)cc3)c(=O)n2C1c1cccs1 (stereo unspecified) | inactive |
| O=C(c1cnccn1)N1CCC[C@@]2(CCN(Cc3ccncc3)C2)C1 | inactive |
| COc1cccc(-c2cc(C(=O)N/N=C/c3ccc(OC)c(COC(C)=O)c3)c3ccccc3n2)c1 | inactive |
| CN(C)CCCN1CC(C(=O)O)CC1=O (stereo unspecified) | inactive |
| CCOC(=O)[C@H](CCc1ccccc1)N[C@@H](C)C(=O)N1CCC[C@H]1C(=O)O | inactive |
| FC(F)(F)c1cc(CN2CC3(CCNCC3)C2)cc(C(F)(F)F)c1 | inactive |
| CC1CCC(=NNC(=O)Cc2ccccc2)CC1 (stereo unspecified) | inactive |
| Cc1noc(C)c1C(=O)N1CCC[C@@]2(CCN(Cc3cc(C(F)(F)F)cc(C(F)(F)F)c3)C2)C1 | inactive |
